// reported emission maximum for each item listed
Test: solvent given as SMILES
Settings: in CCO
Measured attribute: emission maximum (nm)

In [3]: df
Out[3]:
                                   molecule  measured_attribute  units_label  assay_value
0    O=CN1N=C(c2ccc(Br)cc2)C[C@@H]1c1ccccc1    emission maximum           nm          345
1      CCOC(=O)c1cc(C(=O)OCC)c2cc(NC)ccc2n1    emission maximum           nm          539
2       CNC1=C2C=CC=[N+]2[B-](F)(F)n2cccc21    emission maximum           nm          439
3     CN(C)c1ccc(/C=C/C=C/c2nc3ccccc3o2)cc1    emission maximum           nm          531
4  Cc1ccc(C2CC(c3ccc(O)cc3)=NN2c2ccc(S(N)(=O)=O)cc2)cc1 (stereo not given)    emission maximum           nm          428
5  CN(C)c1ccc(C#Cc2ccc(-c3cc(N(C)C)c4ccccc4c3)cc2)cc1    emission maximum           nm       472.33
6  C[P+]1(c2ccccc2)C2=C(c3ccccc31)S(=O)(=O)c1ccccc12 (stereo not given)    emission maximum           nm          419
7  CC(C)(C)OC(=O)NC(C(=O)OCc1ccc2c3cccc4cccc(c5cccc1c52)c43)c1c[nH]c2ccccc12 (stereo not given)    emission maximum           nm          447
8  Fc1ccc(-c2cc3c4c(c2)CCc2cc(-c5ccc(F)cc5)cc(c2-4)CC3)cc1    emission maximum           nm       375.24
9  CC(C)Nc1cc2sc3cc(NC(C)C)c(F)cc3c(=O)c2cc1F    emission maximum           nm          446

###

Assay: solvent given as SMILES
Details: in ClCCl
// reported emission maximum for each item listed

Molecule	emission maximum, nm
CCCCCCCCOc1ccc(C#Cc2ccc(C#Cc3ccc(OCCCCCCCC)c(OCCCCCCCC)c3)c3nc4c5ccccc5c5ccccc5c4nc23)cc1OCCCCCCCC	566
C[Si]1(C)O[Si](C)(C)c2cc3c(-c4ccccc4F)c4cc(Cl)ccc4nc3cc21	498
O=C1Nc2ccccc2/C1=C/C(=O)c1ccc(O)cc1	400
CC(C)(C)c1ccc(-c2nc3c4ccc(-c5cc6ccccc6c6ccccc56)cc4c4cc(-c5cc6ccccc6c6ccccc56)ccc4c3n2-c2ccc(C(C)(C)C)cc2)cc1	404
CC1=[N+]2C(=C(c3ccc(-c4c5ccccc5c(-c5ccccc5)c5ccccc45)cc3)c3ccc(C)n3[B-]2(F)F)C=C1	526
CC(C)(C)c1ccc(-c2ccc3c(-c4ccc(C(C)(C)C)c5ccccc45)cc4c5cc(-c6ccc(C(C)(C)C)c7ccccc67)ccc5c(-c5ccc(C(C)(C)C)c6ccccc56)cc4c3c2)c2ccccc12	405
O=Cc1ccc(-c2ccc(-c3nc4ccccc4s3)c(O)c2)o1	526

###

// reported emission maximum for each item listed
Experiment: solvent given as SMILES
Details: in c1ccccc1
Measured attribute: emission maximum (nm)

>>> print(df.to_string())
                                   compound  assay_value
0    O=C1c2ccccc2-c2ccc(N3CCOCC3)c3cccc1c23          562
1  CCCCN(CCCC)c1ccc(C#Cc2cc(C#Cc3c(F)c(F)c(F)c(F)c3F)c(C#Cc3ccc(N(CCCC)CCCC)cc3)cc2C#Cc2c(F)c(F)c(F)c(F)c2F)cc1          534
2  CC1(C)CC(/C=C/c2ccc(-n3cccn3)cc2)=CC(=C(C#N)C#N)C1          511
3     CN(C)c1ccc(/C=C/C=C/c2nc3ccccc3o2)cc1          503
4  CN(C)/C=N\c1ccc2c3c(cccc13)C(=O)c1ccccc1-2          550
5        CCNc1ccc(NCC)c2c1C(=O)c1ccccc1C2=O          670
6  c1ccc(-c2nc(-c3ccc(-c4ccc(-n5c6ccccc6c6ccccc65)cc4)cn3)oc2-c2ccccc2)cc1          405
7  COc1ccc(-c2cc(-c3ccc(OC)cc3)c3c(N)nc(N4CCCC4)c(C#N)c3n2)cc1          502
8  COC(=O)C(Cc1ccc2oc(-c3ccc(N(C)C)cc3)nc2c1)NC(=O)OC(C)(C)C (centres undefined)        375.5

###

Assay: solvent given as SMILES
Details: in CCCCCCO
Measured attribute: emission maximum (nm)

>>> print(df.to_string())
                                   compound  assay_value
0  CN(C)c1ccc(C#Cc2ccc3ccc4ccc(C#Cc5ccc(N(C)C)cc5)c5ccc2c3c45)cc1        531.8
1  COC(=O)C(Cc1ccc2oc(-c3ccc(N(C)C)cc3)nc2c1)NC(=O)OC(C)(C)C (centres undefined)       397.99
2        CCNc1ccc(NCC)c2c1C(=O)c1ccccc1C2=O          663
3  c1cc2ccc3ccc(-c4ccc(-c5nnc(-c6ccc(-c7nnc(-c8ccc(-c9ccc%10ccc%11cccc%12ccc9c%10c%11%12)s8)o7)cc6)o5)s4)c4ccc(c1)c2c34          394

###

Test: solvent given as SMILES
Details: in ClCCl
Measured attribute: emission maximum

In [3]: df
Out[3]:
                                   molecule  assay_value
0  COc1cc(OC)cc(C2=[O+][B-](F)(F)OC(c3ccccc3)=C2)c1       554 nm
1  C(=C\c1ncccn1)/c1ccc(-c2ccc(N(c3ccccc3)c3ccccc3)cc2)cc1       530 nm
2  c1ccc(C2=C(c3ccccn3)[Si](c3ccccc3)(c3ccccc3)c3ccccc32)cc1       406 nm
3  Cc1c(C)c(-c2cccnc2)c(C)c(C)c1B(c1c(C)c(C)c(-c2cccnc2)c(C)c1C)c1c(C)c(C)c(-c2cccnc2)c(C)c1C       403 nm
4  N#CC1=c2c3cccc4c(Br)ccc(c43)n2[B-](F)(F)[n+]2ccccc21       546 nm
5   O=[N+]([O-])c1ccc(C#Cc2ccc3ccccc3c2)cc1       546 nm
6  CC(C)(C)c1cc(-c2ccc(-c3cccs3)s2)c2c(c1)c1cc(C(C)(C)C)cc(-c3ccc(-c4cccs4)s3)c1n2-c1ccc(-c2cccs2)s1       434 nm
7  CN(C)c1ccc(C2=CC3=C(c4ccc(C=C(C#N)C#N)cc4)[C@H]4c5ccccc5[C@]3(S2)c2ccccc24)cc1       735 nm
8  O=P1(c2ccccc2)C(c2ccccc2)=Cc2ccccc21 (centres undefined)       423 nm

###

Assay: solvent given as SMILES
Conditions: in CCO
Measured attribute: emission maximum (nm)

>>> df
                                    compound  assay_value
 0           CC(=O)c1cc2c(cc1F)NC(C)(C)CC2=O          457
 1  CC1(C)C(/C=C/c2cc3ccc(O)cc3oc2=O)=[N+](CCCS(=O)(=O)[O-])c2ccc(S(=O)(=O)O)cc21          648
 2  CN(C)CCN(Cc1c2ccccc2cc2ccccc12)c1ccc([N+](=O)[O-])cc1[N+](=O)[O-]          394
 3       CCN(CC)c1ccc2c(C(F)(F)F)cc(=O)oc2c1          509
 4  CN(C)c1ccc2c(-c3ccc(Br)cc3)c3ccc(=[N+](C)C)cc-3oc2c1          579
 5  CCCCCCCN1C(=CC2=C([O-])C(=Cc3sc4ccccc4[n+]3CCCCCCC)C2=C(C#N)C#N)Sc2ccccc21          711
 6         CN(C)c1ccc(/C=C/c2nc3ccccc3s2)cc1          498
 7   CN(C)c1cc2c(cc1F)c(=O)c1cc(F)c(N)cc1n2C          432
 8                       N#Cc1cccc2[nH]ccc12          387
 9  CCC1=C(C)C2=C(C)c3c(C)c(-c4csc(N5CCOCC5)n4)c(C)n3[B-](F)(F)[N+]2=C1C          539
10    O=C1c2ccccc2-c2ccc(N3CCOCC3)c3cccc1c23          640
11  CC(C)Nc1cc2c(cc1F)c(=O)c1cc(F)c(NC(C)C)cc1n2C(C)C          423
12  Clc1ncc(-c2c3ccccc3c(-c3cnc(Cl)nc3)c3ccccc23)cn1          428
13  C=CCNc1ccc2c(ccc3oc4cc(=[N+](C)C)ccc-4nc32)c1          650
14  NS(=O)(=O)c1ccc(N2N=C(c3ccc(O)cc3)CC2c2ccc(F)cc2)cc1 (stereo unspecified)          427
15       Cc1cc(O)c(C(C)C)cc1/N=C/c1ccc(O)cc1          414
16  COC(=O)c1ccc(-c2ccc(-c3nnc(-c4ccc(-c5nnc(-c6ccc(-c7ccc(C(=O)OC)cc7)s6)o5)cc4)o3)s2)cc1          400
17     CN(C)c1ccc2cc3ccc(=[N+](C)C)cc-3oc2c1          568
18  COc1ccc(C(=O)OCc2c(C)c(=O)n3c(=O)c(C)c(C)n23)cc1          461
19                   O=c1ccc2cc3c(cc2o1)OCC3          402
20     C[n+]1c2c(c(-c3ccccc3)c3c1CCCC3)CCCC2          420
